species: Rattus norvegicus; assay: Open TG-GATES - Regimen: Daily Repeat; type: toxicity, organism-based, Sprague-Dawley; design: regimen Daily Repeat, gender Male, age 6 weeks; conditions: in vivo, po, 100 mg/kg, […], tissue Blood, route gavage, dose level Low, time 7 day
RECORDED METRIC: Lym
Respond with the figure and its unit, in that order.

QUERY: Item `O=C(N[C@H](CO)[C@H](O)c1ccc([N+](=O)[O-])cc1)C(Cl)Cl` has what recorded Lym?
RESULT: 78.2%

QUERY: Then `CC(C)(S)[C@@H](N)C(=O)O` ?
RESULT: 80.6%

QUERY: Also need `O=C(O)c1cccnc1` , thanks.
RESULT: 82%

QUERY: // same read-out, input: CCN1CCCC1CNC(=O)c1cc(S(N)(=O)=O)ccc1OC (centres undefined) [SULPIRIDE]
RESULT: 80%

---

species: Rattus norvegicus; test: Open TG-GATES - Regimen: Single; type: toxicity, organism-based, Sprague-Dawley; design: regimen Single, gender Male, age 6 weeks; conditions: in vivo, po, 0 mg/kg, 3 h, tissue Plasma, route gavage, dose level Control
I'd be grateful if you could share measured LDH for these entries.
Note: unit IU/L is implicit; provide only the numeric part.

QUERY: # lookup: LDH of CC(C)C(=O)Nc1ccc([N+](=O)[O-])c(C(F)(F)F)c1 [FLUTAMIDE]
RESULT: 165.4

QUERY: And then `CCC(C)(C)C(=O)O[C@H]1C[C@@H](C)C=C2C=C[C@H](C)[C@H](CC[C@@H]3C[C@@H](O)CC(=O)O3)[C@H]21` , what is it?
RESULT: 82.2

QUERY: Now try `O=C(O)c1cccnc1` .
RESULT: 165

QUERY: How about this compound: `CC(=O)Oc1cc(C(C)C)c(OCCN(C)C)cc1C`
RESULT: 263.8

QUERY: Moving on to the next compound: `CCc1oc2ccccc2c1C(=O)c1cc(I)c(O)c(I)c1`
RESULT: 93.2

QUERY: Then this compound: `C[C@](N)(Cc1ccc(O)c(O)c1)C(=O)O`
RESULT: 61.2

QUERY: Then `Oc1ncnc2[nH]ncc12` ?
RESULT: 96.6

QUERY: Request: `CCSCC[C@H](N)C(=O)O`
RESULT: 172.8

QUERY: And the next one, `C[C@]12CCC(=O)C=C1CC[C@@H]1[C@@H]2CC[C@@]2(C)[C@H]1CC[C@]2(C)O` ?
RESULT: 59.4

QUERY: Next record, please: `Nc1nc(N)c2nc(-c3ccccc3)c(N)nc2n1`
RESULT: 58.4

QUERY: Queued: `CN1C(=O)OC(C)(C)C1=O`
RESULT: 152

QUERY: Cool, now `O=C(N[C@H](CO)[C@H](O)c1ccc([N+](=O)[O-])cc1)C(Cl)Cl`
RESULT: 57.6

QUERY: Entry to check: CCN1CCCC1CNC(=O)c1cc(S(N)(=O)=O)ccc1OC (stereo unspecified) [SULPIRIDE]
RESULT: 173.6

QUERY: Also need CC(=N)S [THIOACETAMIDE] , thanks.
RESULT: 87.6

QUERY: Try this compound too: `CC(C)(S)[C@@H](N)C(=O)O`
RESULT: 74.6

QUERY: Next entry: `C#C[C@]1(O)CC[C@H]2[C@@H]3CCc4cc(O)ccc4[C@H]3CC[C@@]21C`
RESULT: 56
